Quick reference for Fold IC50 increase relative to wild-type among some binders
target: HIV-1 JR-CSF Env I323A (HIV-1 isolate JR-CSF) (UniProt P20871); assay: cell-based or functional assay
Unit fold implied. Number only.

QUERY: What does the data say about its Fold IC50 increase relative to wild-type? Entry: PGT-123 (antibody, V domains shown) VH: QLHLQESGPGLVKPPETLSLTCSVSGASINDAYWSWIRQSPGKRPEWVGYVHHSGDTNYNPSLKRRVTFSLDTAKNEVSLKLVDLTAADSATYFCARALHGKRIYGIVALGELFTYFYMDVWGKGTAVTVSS VL: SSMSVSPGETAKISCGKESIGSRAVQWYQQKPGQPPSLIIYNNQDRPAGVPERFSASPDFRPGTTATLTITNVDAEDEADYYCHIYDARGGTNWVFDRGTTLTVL
RESULT: 1

QUERY: What does the data say about its Fold IC50 increase relative to wild-type? Entry: PGT-125 (antibody, V domains shown) VH: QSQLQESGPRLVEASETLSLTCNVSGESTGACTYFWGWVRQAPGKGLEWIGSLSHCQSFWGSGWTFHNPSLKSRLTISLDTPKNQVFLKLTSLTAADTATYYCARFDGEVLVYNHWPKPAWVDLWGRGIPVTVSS VL: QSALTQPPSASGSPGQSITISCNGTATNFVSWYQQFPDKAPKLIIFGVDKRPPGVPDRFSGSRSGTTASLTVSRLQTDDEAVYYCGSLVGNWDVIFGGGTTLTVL
RESULT: 0.9
